- System: WNT1 (DNA, G4) GGGGGCCACCGGGCAGGGGGCGGGGG
- TEST: thiazole orange displacement (G4-FID)
- TEST_CONTEXT: 100 mM KCl; 10 mM sodium cacodylate pH 7.3, 18 °C; thiazole orange displaced; from DC50, assumed TO Kb 2.5 × 10^6
MEASUREMENT_KIND: Kb

- STRUCTURE_AS_SMILES: "O=C(O[C@@H]1Cc2c(O)cc(O)cc2O[C@@H]1c1cc(O)c(O)c(O)c1)c1cc(O)c(O)c(O)c1"
  MEASUREMENT_TARGET: "WNT1 (DNA, G4) GGGGGCCACCGGGCAGGGGGCGGGGG"
  Kb: "2.75 ± 0.39 × 10^6 M^-1"

Hey, quick one: what's Kb for each of these?
1. C[n+]1cc2c3c(ccc2c2ccc4cc5c(cc4c21)OCO5)OCO3
2. CC1=CC(=O)C(C(C)C)=CC1=O
3. O=c1c(O)c(-c2ccc(O)c(O)c2)oc2cc(O)cc(O)c12

RESULT:
1. 2.83 ± 0.40 × 10^6 M^-1
2. 2.71 ± 0.39 × 10^6 M^-1
3. 2.07 ± 0.30 × 10^6 M^-1

QUERY: Bench note: what Kb did O=c1c(O)c(-c2ccc(O)cc2)oc2cc(O)cc(O)c12 show?
RESULT: 3.03 ± 0.43 × 10^6 M^-1

---

- System: VEGF (VEGFA) (DNA, G4) GGGGCGGGCCGGGGGCGGGG
- TEST: thiazole orange displacement (G4-FID)
- TEST_CONTEXT: 100 mM KCl; 10 mM sodium cacodylate pH 7.3, 18 °C; 1 µM thiazole orange displaced, 0.5 µM DNA
# note: boundary value 2000 nM maps to Not satisfied; DC50 below it maps to Satisfied

Known results for molecules:
- STRUCTURE_AS_SMILES: "O=c1c(O)c(-c2ccc(O)cc2)oc2cc(O)cc(O)c12"
  MEASUREMENT_TARGET: "VEGF (VEGFA) (DNA, G4) GGGGCGGGCCGGGGGCGGGG"
  QUALITATIVE_LABEL: "Satisfied"
- STRUCTURE_AS_SMILES: "CC1=CC(=O)C(C(C)C)=CC1=O"
  MEASUREMENT_TARGET: "VEGF (VEGFA) (DNA, G4) GGGGCGGGCCGGGGGCGGGG"
  QUALITATIVE_LABEL: "Not satisfied"
- STRUCTURE_AS_SMILES: "O=c1c(O)c(-c2ccc(O)c(O)c2)oc2cc(O)cc(O)c12"
  MEASUREMENT_TARGET: "VEGF (VEGFA) (DNA, G4) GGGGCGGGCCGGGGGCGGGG"
  QUALITATIVE_LABEL: "Satisfied"

QUERY: Just wondering, is DC50 of C[n+]1cc2c3c(ccc2c2ccc4cc5c(cc4c21)OCO5)OCO3 below 2000 nM?
RESULT: Not satisfied

---

- Tested on: c-KIT (DNA, G4) GGGAGGGCGCTGGGAGGAGGG
- TEST: thiazole orange displacement (G4-FID)
- TEST_CONTEXT: 100 mM KCl; 10 mM sodium cacodylate pH 7.3, 18 °C; thiazole orange displaced; from DC50, assumed TO Kb 2.5 × 10^6
Could you please report measured Kb for the items listed next?

- STRUCTURE_AS_SMILES: "O=C(O[C@@H]1Cc2c(O)cc(O)cc2O[C@@H]1c1cc(O)c(O)c(O)c1)c1cc(O)c(O)c(O)c1"
  MEASUREMENT_TARGET: "c-KIT (DNA, G4) GGGAGGGCGCTGGGAGGAGGG"
  Kb: "1.44 ± 0.21 × 10^6 M^-1"
- STRUCTURE_AS_SMILES: "O=c1c(O)c(-c2ccc(O)c(O)c2)oc2cc(O)cc(O)c12"
  MEASUREMENT_TARGET: "c-KIT (DNA, G4) GGGAGGGCGCTGGGAGGAGGG"
  Kb: "3.80 ± 0.54 × 10^6 M^-1"
- STRUCTURE_AS_SMILES: "O=c1c(O)c(-c2ccc(O)cc2)oc2cc(O)cc(O)c12"
  MEASUREMENT_TARGET: "c-KIT (DNA, G4) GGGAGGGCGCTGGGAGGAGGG"
  Kb: "1.63 ± 0.23 × 10^6 M^-1"
- STRUCTURE_AS_SMILES: "C[n+]1cc2c3c(ccc2c2ccc4cc5c(cc4c21)OCO5)OCO3"
  MEASUREMENT_TARGET: "c-KIT (DNA, G4) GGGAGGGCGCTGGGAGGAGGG"
  Kb: "3.28 ± 0.47 × 10^6 M^-1"

The record that follows has no Kb shown yet.
QUERY: Bench note: what Kb did CC1=CC(=O)C(C(C)C)=CC1=O show?
RESULT: 1.61 ± 0.23 × 10^6 M^-1
